# assay-procedure: Cytotoxicity in Calu-3 cells (CellTiter-Glo)
# Type: cell-based, human
# test-context: human
value-type: CC50 at 2 days

For CCC(CC)COC(=O)[C@H](C)N[P@](=O)(OC[C@H]1O[C@@](C#N)(c2ccc3c(N)ncnn23)[C@H](O)[C@@H]1O)Oc1ccccc1 [Remdesivir, reference compound] , write its CC50 at 2 days.
> 10 µM

* * *

# assay-procedure: DPPH radical scavenging assay
# test-context: measured immediately, without extract; read-out: DPPH IC50 immediately
value-type: IC50

O=c1ccn([C@@H]2O[C@H](CS)[C@@H](O)[C@H]2O)c(=O)[nH]1; 710 µM
O=c1ccn([C@@H]2O[C@H](CO)[C@@H](O)[C@H]2O)c(=O)[nH]1 [Uridine, reference compound]; > 100000 µM
Nc1ncnc2c1ncn2[C@@H]1O[C@H](CS)[C@@H](O)[C@H]1O; 720 µM

We now examine a further compound.
Note IC50 for the compound shown: O=C1O[C@H]([C@@H](O)CO)C(O)=C1O [Ascorbic acid (AA), Ascorbic acid, reference compound]
60 µM
